- protocol.details: in vivo
- assay.context: female, CD1, mouse, blood/plasma, po, 10 mg/kg
metric: Cmax (ng/mL)
Numbers only, in ng/mL.

get_value(item= COc1cc(-c2nn(CCN3CCC(N(C)C)CC3)c3ncnc(N)c23)ccc1NC(=O)OC(C)(C)C [11a] , readout=Cmax) returns 100

###

- tested.on: LYN (Homo sapiens)
- Sequence (P07948 whole entry): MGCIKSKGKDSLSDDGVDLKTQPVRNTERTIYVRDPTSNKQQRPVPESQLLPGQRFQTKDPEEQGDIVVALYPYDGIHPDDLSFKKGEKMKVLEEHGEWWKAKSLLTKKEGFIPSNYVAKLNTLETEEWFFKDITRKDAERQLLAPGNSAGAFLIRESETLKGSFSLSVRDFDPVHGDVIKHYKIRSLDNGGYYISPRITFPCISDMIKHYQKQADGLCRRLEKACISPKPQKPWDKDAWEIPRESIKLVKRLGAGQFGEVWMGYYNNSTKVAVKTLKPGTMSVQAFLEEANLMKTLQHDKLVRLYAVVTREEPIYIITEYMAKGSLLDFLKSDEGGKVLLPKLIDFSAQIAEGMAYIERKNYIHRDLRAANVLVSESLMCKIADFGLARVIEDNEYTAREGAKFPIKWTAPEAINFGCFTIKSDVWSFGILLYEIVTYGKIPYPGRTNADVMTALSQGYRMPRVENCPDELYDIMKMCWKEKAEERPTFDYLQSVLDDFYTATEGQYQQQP
Please provide measured IC50 for the entries that follow.
One number for each entry, in nM.

Form: compound = Cc1ccc(-c2nn(CCN3CCC(CN(C)C)CC3)c3ncnc(N)c23)cc1 ; IC50 = 1070

Could you now look at the following compound, please?
Value of IC50 reported for the compound CCOC(Cn1nc(-c2cnc3[nH]ccc3c2)c2c(N)ncnc21)OCC is 2310

###

- tested.on: ABL (Homo sapiens, UniProt P00519)
- Sequence (P00519 whole entry): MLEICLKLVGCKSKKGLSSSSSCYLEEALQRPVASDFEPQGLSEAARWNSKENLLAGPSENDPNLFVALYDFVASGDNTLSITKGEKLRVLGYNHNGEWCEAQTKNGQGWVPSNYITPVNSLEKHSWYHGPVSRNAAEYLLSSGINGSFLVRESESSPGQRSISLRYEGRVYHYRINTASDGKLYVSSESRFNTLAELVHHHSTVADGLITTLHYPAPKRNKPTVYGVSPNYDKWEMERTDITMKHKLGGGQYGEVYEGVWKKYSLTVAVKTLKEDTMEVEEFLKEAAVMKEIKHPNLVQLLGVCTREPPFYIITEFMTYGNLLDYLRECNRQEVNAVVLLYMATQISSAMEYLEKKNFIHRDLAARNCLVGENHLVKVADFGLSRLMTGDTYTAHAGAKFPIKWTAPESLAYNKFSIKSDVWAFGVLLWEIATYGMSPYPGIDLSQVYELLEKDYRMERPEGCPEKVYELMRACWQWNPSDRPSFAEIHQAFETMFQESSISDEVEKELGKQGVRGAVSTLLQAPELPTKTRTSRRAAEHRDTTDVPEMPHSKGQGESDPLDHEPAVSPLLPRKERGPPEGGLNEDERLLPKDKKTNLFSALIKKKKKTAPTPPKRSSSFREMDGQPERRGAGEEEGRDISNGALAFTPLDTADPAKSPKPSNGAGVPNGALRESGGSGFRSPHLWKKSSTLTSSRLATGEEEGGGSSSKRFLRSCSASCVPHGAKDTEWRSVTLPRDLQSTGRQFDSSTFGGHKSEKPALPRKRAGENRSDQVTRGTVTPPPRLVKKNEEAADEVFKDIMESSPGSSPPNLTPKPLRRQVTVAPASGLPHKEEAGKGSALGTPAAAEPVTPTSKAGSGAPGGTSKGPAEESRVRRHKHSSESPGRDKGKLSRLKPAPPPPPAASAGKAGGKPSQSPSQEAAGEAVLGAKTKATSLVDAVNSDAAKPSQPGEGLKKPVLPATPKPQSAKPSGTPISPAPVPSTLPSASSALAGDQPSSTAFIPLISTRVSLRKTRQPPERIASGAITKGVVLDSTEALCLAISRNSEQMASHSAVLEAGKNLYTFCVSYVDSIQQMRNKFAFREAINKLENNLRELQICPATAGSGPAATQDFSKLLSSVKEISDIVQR
metric: pIC50
Numbers only, as −log10 of the molar value.

Sure, the documented pIC50 for COc1cc(-c2nn(CCN3CCC(CN(C)C)CC3)c3ncnc(N)c23)ccc1NC(=O)OC(C)(C)C [11b] is 6.72

###

- protocol.details: in vivo
- assay.context: female, CD1, mouse, blood/plasma, po, 10 mg/kg
metric: Tmax (h)
Give bare numbers, in h.

Measured Tmax of COc1cc(-c2nn(CCN3CCC(N(C)C)CC3)c3ncnc(N)c23)ccc1NC(=O)OC(C)(C)C [11a] : 2
